assay: in vivo; set-up: species or system female CD-1 mice; conditions: female, CD-1, mouse, po, 12 mg/kg
recorded_metric: Tmax (h)
Only the number, expressed in h, is required.

Exercise: If you can, please state the reported Tmax value of "CC(C)[C@@H](C)[C@@]1(C)CC[C@]2(C)[C@H]3CC[C@@H]4[C@@]5(COC[C@@]4(C)[C@@H](OC[C@](C)(N)C(C)(C)C)[C@H](n4ncnc4-c4ccncc4)C5)C3=CC[C@@]2(C)[C@@H]1C(=O)O" .
Solution: 6

----------
assay: Solubility in simulated gastric and intestinal fluids; type: physicochemical; settings: fasted-state simulated intestinal fluid (FaSSIF), thermodynamic from solid, citrate salt form, FaSSIF
recorded_metric: solubility at 24 h

Exercise: If you can, please state the reported solubility at 24 h value of "CC(C)[C@@H](C)[C@@]1(C)CC[C@]2(C)[C@H]3CC[C@@H]4[C@@]5(COC[C@@]4(C)[C@@H](OC[C@](C)(N)C(C)(C)C)[C@H](n4ncnc4-c4ccncc4)C5)C3=CC[C@@]2(C)[C@@H]1C(=O)O" .
Solution: > 4.2 mg/mL
